Measurement target: GST-tagged GDP-loaded KRAS G12V (amino acids 1-169) (Homo sapiens, UniProt P01116, G12V)
Construct: GST-tagged GDP-loaded KRAS G12V (amino acids 1-169)
Sequence (P01116 1-169 isoform P01116-2 G12V): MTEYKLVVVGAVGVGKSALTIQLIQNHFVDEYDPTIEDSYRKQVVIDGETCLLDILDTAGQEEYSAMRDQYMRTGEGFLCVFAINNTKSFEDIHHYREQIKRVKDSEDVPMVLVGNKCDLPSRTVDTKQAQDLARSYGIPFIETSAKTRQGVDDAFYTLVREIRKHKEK
Experimental protocol: KRAS G12V probe displacement assay (TR-FRET)
Conditions used: displacement of biotinylated probe 2 from GDP-loaded KRAS G12V
Experimental: KRAS WT and KRAS G12V Probe Displacement Assay This assay was used to identify compounds which bind to GDP-loaded KRAS protein and are able to displace a biotinylated probe occupying the KRAS binding site. […] The TR-FRET signals (ex337 nm, em665 nm/620 nm) were read on BMG PHERAstar FSX instrument. The inhibition percentage of KRAS protein binding with biotinylated probe in presence of increasing concentrations of compounds was calculated based on the ratio of fluorescence at 665 nm to that at 620 nm. […]
pIC50 values by entry
Recall that pIC50 is obtained by taking minus log10 of the concentration measured in molar.

Worked set:
Molecule: CO[C@H]1C[C@H](Nc2nc(OC[C@@]34CCCN3C[C@H](F)C4)nc3c(F)c(-c4ccc(F)c5sc(N)nc45)c(C(F)(F)F)cc23)C1
Reported result: 7.89
--
Molecule: Nc1cc(Cl)c(C(F)(F)F)c(-c2ncc3c(NC4CC4)nc(OC[C@@]45CCCN4C[C@H](F)C5)nc3c2F)c1
Reported result: 7.77
--
Molecule: C[C@@H]1COCCN1c1nc(OC[C@@]23CCCN2C[C@H](F)C3)nc2c(F)c(-c3cc(N)cc(Cl)c3C(F)(F)F)ncc12
Reported result: 8.19
--
Molecule: N#C[C@H]1CCC[C@H]1Nc1nc(OC[C@@]23CCCN2C[C@H](F)C3)nc2c(F)c(-c3ccc(F)c4sc(N)nc34)c(C(F)(F)F)cc12
Reported result: 7.96
--
Molecule: N#CCC1CCN(c2nc(OC[C@@]34CCCN3C[C@H](F)C4)nc3c(F)c(-c4ccc(F)c5sc(N)nc45)c(C(F)(F)F)cc23)CC1
Reported result: 8.00
--
Molecule: Nc1nc2c(-c3c(C(F)(F)F)cc4c(N[C@H]5C[C@H]5F)nc(OC[C@@]56CCCN5C[C@H](F)C6)nc4c3F)ccc(F)c2s1
Reported result: 7.80
--
Molecule: CC1C(C#N)CN1c1nc(OC[C@@]23CCCN2C[C@H](F)C3)nc2c(F)c(-c3ccc(F)c4sc(N)nc34)c(C(F)(F)F)cc12 (stereo partly shown)
Reported result: 8.15
--
Molecule: N#CCN1CC2(CCN(c3nc(OC[C@@]45CCCN4C[C@H](F)C5)nc4c(F)c(-c5ccc(F)c6sc(N)nc56)c(C(F)(F)F)cc34)CC2)OC1=O
Reported result: 8.62
--
Molecule: COC1CN(c2nc(OC[C@@]34CCCN3C[C@H](F)C4)nc3c(F)c(-c4ccc(F)c5sc(N)nc45)c(C(F)(F)F)cc23)C1
Reported result: 7.82
--
Molecule: Nc1nc2c(-c3c(C(F)(F)F)cc4c(N5CC(F)C5)nc(OC[C@@]56CCCN5C[C@H](F)C6)nc4c3F)ccc(F)c2s1
Reported result: 8.22

Problem: Which pIC50 value is on record for "N#CC1CN(c2nc(OC[C@@]34CCCN3C[C@H](F)C4)nc3c(F)c(-c4ccc(F)c5sc(N)nc45)c(C(F)(F)F)cc23)C1" ?
Solution: 8.26

Problem: Which pIC50 value is on record for "Nc1nc2c(-c3c(C(F)(F)F)cc4c(N5CCC(F)(F)C5)nc(OC[C@@]56CCCN5C[C@H](F)C6)nc4c3F)ccc(F)c2s1" ?
Solution: 7.92

Problem: Which pIC50 value is on record for "C[C@@H]1CCCN1c1nc(OC[C@@]23CCCN2C[C@H](F)C3)nc2c(F)c(-c3ccc(F)c4sc(N)nc34)c(C(F)(F)F)cc12" ?
Solution: 6.77
